Data credit: PubChem BioAssay (NCI)

Tested on: NCI-H226 lung
test_method_notes: NCI-60 one-dose screen, 48 h (100 = growth as untreated, 0 = no growth, -100 = all killed)
applied_conditions: 10 µM unless noted
This is part of a sample that, as a whole, favours compounds with a hit. Of some 83,000 tested, about 20% had one in any assay.
# if measured growth < 80%: 1 (yes)  # else: 0 (no)

Challenge: Here's an entry: `COC(=O)[C@H]1CCCN1C[C@@H](O)CN1C(=O)/C(=C\c2cc(OC)c(OC)c(OC)c2)c2ccccc21` . Is its growth below 80%?
Response given: 0 (no)

Challenge: # repeat for `CCN(CC)CCCN1C(=O)c2c(c(C)c3c(oc4cc(O)ccc43)c2C)C1=O`
Response given: 1 (yes)

Challenge: # repeat for `CC(=O)n1nc(C(=O)OC(C)C)c2cc(C)c(C)cc21`
Response given: 0 (no)

====

System: OVCAR-8 ovarian
test_method_notes: NCI-60 one-dose screen, 48 h
applied_conditions: 10 µM unless noted
This is part of a sample that, as a whole, favours compounds with a hit. Of some 83,000 tested, about 20% had one in any assay. The source made the active and inactive calls. The calls were made as follows: active = growth percent below 10; inactive = the rest.
Allowed answers: active, inactive

Challenge: What did the test return for `O=C(OCc1ccc2cccc(O)c2n1)N1CCN(C(=O)c2cc3cc(F)ccc3[nH]2)CC1` ?
Response given: active

Challenge: # repeat for `O=C1/C(=C/c2ccc(-c3ccc(Br)cc3)o2)SC(=S)N1CCc1ccc(O)cc1`
Response given: active

Challenge: # repeat for `O=C(O)/C(=C\c1ccc(Cl)cc1)c1ccc(Cl)cc1`
Response given: inactive

Challenge: # repeat for COc1ccc(C2c3sc4c(F)cccc4c3Oc3nc[nH]c(=O)c32)cc1 (stereo not given)
Response given: inactive

Challenge: # repeat for `Cn1c(=O)c2[nH]c(N/N=C/c3ccccc3Br)nc2n(C)c1=O`
Response given: inactive

Challenge: # repeat for `C=C(C)[C@@H]1CC[C@]2(C(=O)OC)CC[C@]3(C)[C@H](CC[C@@H]4[C@@]5(C)C/C(=C/NC(N)=S)C(=O)C(C)(C)[C@@H]5CC[C@]43C)[C@@H]12`
Response given: inactive

Challenge: # repeat for `N#C/C(=C/c1ccc([N+](=O)[O-])cc1)n1nnc2cc(F)c(F)cc21`
Response given: inactive

Challenge: # repeat for `Cc1cc(Cl)ccc1NC(=O)c1cc2ccccc2cc1O`
Response given: active

Challenge: # repeat for `COC(=O)c1ccc2c(c1)C(=O)c1c-2n(CCCN)c(=O)c2cc([N+](=O)[O-])ccc12`
Response given: active

Challenge: # repeat for `COc1cnc2c(c1)C(=O)c1c-2n(CCCNCCO)c(=O)c2ccncc12`
Response given: active

Challenge: # repeat for `CCOC(=O)c1ccc2[nH]c(O)c(C(=Nc3ccc(N(C)C(=O)CN4CCN(C)CC4)cc3)c3ccccc3)c2c1`
Response given: active

Challenge: # repeat for `O=C1c2cc(Cl)ccc2S(=O)(=O)c2c(NCCCNCCO)nc3ccccc3c21`
Response given: active

Challenge: # repeat for `Cc1ccccc1NC(=O)c1sc2nc(C)c(C(=O)/C=C/c3ccccc3)cc2c1N`
Response given: active

Challenge: # repeat for `CCOC(=O)C(=Cc1cccc(Br)c1)C(=O)OCC`
Response given: inactive

Challenge: # repeat for `N=C(N)c1ccc(-c2ccc(-c3cc(Cl)cc(Cl)c3)o2)o1`
Response given: active

Challenge: # repeat for `CC/C(=C(/c1ccc(Cl)cc1)c1ccc(OCCN2CCCC2)cc1)c1ccc(OC)cc1`
Response given: inactive

Challenge: # repeat for `COC(=O)c1c2c(c[n+]([O-])c1C)C(=O)C(NCc1ccccc1)=CC2=O`
Response given: active

Challenge: # repeat for `CCNC(=O)c1[nH]cc(-c2ccccc2)c1-c1cc(OC)c2c(c1OC)OCO2`
Response given: inactive

Challenge: # repeat for `CCOC(=O)c1c2c(n3ccc(C)cc13)C(=O)c1ccccc1C2=O`
Response given: inactive

Challenge: # repeat for `Cc1ccc(-c2nc3nc(-c4ccccc4)nc(N4CCNCC4)c3o2)cc1`
Response given: active

====

Tested on: EKVX NSCLC
test_method_notes: NCI-60 one-dose screen, 48 h
applied_conditions: 10 µM unless noted
The panel holds about 83,000 compounds, 20% with a hit somewhere; the sample as a whole holds those more often. Activity calls are given as the source filed them. How the source made its calls: active means growth percent below 10; inactive means the rest.
Allowed answers: active, inactive

Challenge: What did the test return for `COc1ccc2c(c1)c(-c1noc(C(=O)c3cn(C)c4ccc(Br)cc34)n1)cn2C` ?
Response given: inactive

Challenge: # repeat for `O=C(/C=C/c1cn(-c2ccccc2)nc1-c1ccc([N+](=O)[O-])cc1)c1ccc(Cl)cc1`
Response given: inactive

Challenge: # repeat for `CCOC(=O)C#Cc1c(C(=O)OCC)nnn1[C@@H]1O[C@H](CO)[C@H]2OC3(CCCCC3)O[C@H]21`
Response given: inactive

Challenge: # repeat for `Cc1c(-n2nnc(-c3nc4ccccc4s3)c2N)c(=O)n(-c2ccccc2)n1C`
Response given: inactive

Challenge: # repeat for `C#CCOc1ccc2ncnc(Nc3cccc(NC(=O)C=C)c3)c2c1`
Response given: inactive

Challenge: # repeat for `N#CCSc1nnc2n(Cc3ccccc3)c(=O)c3c4c(sc3n12)CCCC4`
Response given: inactive

Challenge: # repeat for `O=C1c2cccc(NCCN=Cc3cc(O)ccc3O)c2C(=O)c2c(NCCN=Cc3cc(O)ccc3O)cccc21`
Response given: active

Challenge: # repeat for COc1ccc(C(=O)C2C(c3ccc(OC)cc3)CN(C)C23C(=O)Nc2ccccc23)cc1 (stereo unspecified)
Response given: inactive

Challenge: # repeat for Cc1ccc(S(=O)(=O)N2CCCC2CO)cc1 (stereo unspecified)
Response given: inactive

Challenge: # repeat for `Cc1nnc(NC(=O)c2nc(S(=O)(=O)Cc3ccc(F)cc3)ncc2Cl)s1`
Response given: inactive

Challenge: # repeat for `Cc1nc2sc(C(=O)Nc3ccccc3)c(N)c2cc1C(=O)c1ccccc1`
Response given: inactive

Challenge: # repeat for `COc1cccc([C@H]2c3[nH]c4ccccc4c3C[C@H]3C(=O)N(CCCCCCC(=O)NO)CC(=O)N23)c1`
Response given: inactive

Challenge: # repeat for `O=C1Nc2ccc(Br)cc2/C1=N/c1n[nH]c(=S)s1`
Response given: inactive

Challenge: # repeat for `N#Cc1nc(-c2ccccc2)oc1S(=O)(=O)N1CCOCC1`
Response given: inactive

Challenge: # repeat for `CC(C)CCNC(=O)Cn1cccc(NC(=O)OCc2ccccc2)c1=O`
Response given: inactive

Challenge: # repeat for `NC(=O)c1c(NC(=O)c2ccccc2)sc2c1CCC(=O)C2`
Response given: inactive

Challenge: # repeat for `Cc1ccccc1NC(=O)c1sc2nc(C)c(C(=O)/C=C/c3ccccc3)cc2c1N`
Response given: inactive

Challenge: # repeat for `C#CCOc1ccc2ncnc(Nc3ccc(NC(=O)CCl)cc3)c2c1`
Response given: active

Challenge: # repeat for `COc1cc(OC)c2sc(-c3ccc(-n4cncc4-c4ccc(OC)c(OC)c4)cc3)nc2c1`
Response given: inactive

Challenge: # repeat for `CCN1CCN(Cc2cn(CC(=O)Nc3ccc4c(ccn4Cc4ccccc4)c3)nn2)CC1`
Response given: inactive

Challenge: # repeat for `COC(=O)CCC(=O)C(=O)OC`
Response given: inactive

====

Tested on: SF-539 CNS
test_method_notes: NCI-60 one-dose screen, 48 h (100 = growth as untreated, 0 = no growth, -100 = all killed)
applied_conditions: 10 µM unless noted
Protocol: Cells are grown in 96 well plates and exposed to the test compound for 48 hours. Compounds are tested at a single concentration, which is 10^-5 M for most compounds. The reported endpoint is percent growth (GI% or GIPRCNT), where numbers from 0 - 100% represent growth inhibition, and numbers from -100% - 0 represent cell death. For example, a value of 40 represents 60% growth inhibition. A value of 0 means no net growth occurred over the course of the experiment. […]
The panel holds about 83,000 compounds, 20% with a hit somewhere; the sample as a whole holds those more often.
assay_readout: growth (%)
# value in %; strip the unit string

Challenge: Request - read-out growth | tested on SF-539 CNS | compound `COc1ccc(C/C(C)=C(/c2ccc(OCCN3CCCCC3)cc2)c2ccc(OC(=O)NCc3ccccc3)cc2)cc1`
Response given: -92.5

Challenge: # repeat for `CCCCCC(=O)OCC(=O)O[C@@H]1C[C@]2(C(C)C)O[C@@]1(C)[C@@H]1CC[C@@H](C)[C@H]1[C@@H]2OC(=O)/C=C/c1ccccc1`
Response given: 92.3

Challenge: # repeat for `C=C(C)[C@@H]1CC[C@]2(C(=O)O)CC[C@]3(C)[C@H](CC[C@@H]4[C@@]5(C)C[C@@H](Cc6cn(CCO[C@@H]7O[C@H](COC(C)=O)[C@H](OC(C)=O)[C@H](OC(C)=O)[C@H]7OC(C)=O)nn6)[C@H](O)C(C)(C)[C@@H]5CC[C@]43C)[C@@H]12`
Response given: 79.3

Challenge: # repeat for `C=C1C(=O)O[C@H]2[C@H]1CC/C(COC(=O)N[C@H]1C[C@H](O[C@H]3C[C@](O)(C(=O)CO)Cc4c(O)c5c(c(O)c43)C(=O)c3c(OC)cccc3C5=O)O[C@@H](C)[C@H]1O)=C\CC[C@@]1(C)O[C@@H]21`
Response given: 20.8
